- assay_target: cytoplasmic domain of the human VEGF receptor (VEGFR-2) (Homo sapiens, UniProt P35968)
- Construct: The cytoplasmic domain of the human VEGF receptor (VEGFR-2) was expressed as a Histidine-tagged fusion protein; Histidine tag
- Sequence (P35968 786-1356): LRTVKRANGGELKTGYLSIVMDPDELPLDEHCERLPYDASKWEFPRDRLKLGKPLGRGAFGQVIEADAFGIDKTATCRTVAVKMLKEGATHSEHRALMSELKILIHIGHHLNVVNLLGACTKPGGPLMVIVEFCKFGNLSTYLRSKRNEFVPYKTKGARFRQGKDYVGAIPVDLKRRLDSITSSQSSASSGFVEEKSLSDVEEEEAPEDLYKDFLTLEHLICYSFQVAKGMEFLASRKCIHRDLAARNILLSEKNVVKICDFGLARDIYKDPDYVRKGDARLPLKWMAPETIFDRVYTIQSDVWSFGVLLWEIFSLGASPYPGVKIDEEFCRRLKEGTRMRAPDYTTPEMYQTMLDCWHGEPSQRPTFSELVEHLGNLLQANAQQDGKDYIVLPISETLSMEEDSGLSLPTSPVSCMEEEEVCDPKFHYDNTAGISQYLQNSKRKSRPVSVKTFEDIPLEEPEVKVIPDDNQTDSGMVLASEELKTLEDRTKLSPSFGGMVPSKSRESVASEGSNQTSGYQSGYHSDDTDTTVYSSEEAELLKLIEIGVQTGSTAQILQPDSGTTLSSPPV
- measurement_description: KDR Assay
- condition_summary: His-VEGFR-2; 3.6 μM ATP
Exercise: for every item that follows, state its recorded IC50.

(Q) Given "CSc1ccc(NC=C2C(=O)Nc3cccc(C)c32)cc1" , respond with its IC50.
(A) 270 nM

(Q) Given "COc1ccc(NC=C2C(=O)Nc3ccc(F)cc32)cc1" , respond with its IC50.
(A) 470 nM

(Q) Given "Cc1cccc2c1C(=CNc1ccc3ncsc3c1)C(=O)N2" , respond with its IC50.
(A) 150 nM

(Q) Given "O=C(O)CCc1ccc(NC=C2C(=O)Nc3ccc(Cl)cc32)cc1" , respond with its IC50.
(A) 510 nM
